- experimental-system: Mitogen-activated protein kinase 1 (Homo sapiens, UniProt P28482)
- Sequence (P28482 whole entry): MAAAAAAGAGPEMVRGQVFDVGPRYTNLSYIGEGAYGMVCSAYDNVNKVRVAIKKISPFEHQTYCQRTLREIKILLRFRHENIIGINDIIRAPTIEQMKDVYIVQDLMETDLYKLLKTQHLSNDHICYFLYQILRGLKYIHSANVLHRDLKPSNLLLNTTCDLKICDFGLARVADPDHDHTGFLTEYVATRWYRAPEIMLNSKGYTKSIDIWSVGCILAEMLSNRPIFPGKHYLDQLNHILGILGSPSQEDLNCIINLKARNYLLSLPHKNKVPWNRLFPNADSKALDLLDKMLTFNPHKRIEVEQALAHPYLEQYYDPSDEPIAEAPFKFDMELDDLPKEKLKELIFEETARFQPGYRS
- protocol-text: Inhibition of ERK2 by spectrophotometric coupled-enzyme assay
The label y is reserved for Ki strictly under 300 nM; n covers values equal to or above it.

[
  {
    "compound": "O=C(N[C@H](C(=O)O)c1ccccc1)c1cc(-c2n[nH]cc2-c2cccc(Cl)c2)c[nH]1",
    "assigned-category": "n"
  },
  {
    "compound": "CCN1CCCC1CNC(=O)c1cc(-c2n[nH]cc2-c2cccc(Cl)c2)c[nH]1 (centres undefined)",
    "assigned-category": "n"
  },
  {
    "compound": "O=C(NC(CO)c1cc(Cl)cc(Cl)c1)c1cc(-c2n[nH]cc2-c2cccc(Cl)c2)c[nH]1 (centres undefined)",
    "assigned-category": "y"
  },
  {
    "compound": "O=C(c1cc(-c2[nH]ncc2-c2cccc(Cl)c2)c[nH]1)N1CCc2ccccc2C1",
    "assigned-category": "n"
  },
  {
    "compound": "C[C@@H](NC(=O)c1cc(-c2n[nH]cc2-c2cccc(Cl)c2)c[nH]1)c1ccccc1",
    "assigned-category": "y"
  },
  {
    "compound": "O=C(NC(CO)c1cccc(F)c1)c1cc(-c2[nH]ncc2-c2cccc(Cl)c2)c[nH]1 (centres undefined)",
    "assigned-category": "y"
  },
  {
    "compound": "O=C(N[C@@H](CO)c1ccc(F)c(Cl)c1)c1cc(-c2n[nH]cc2-c2cccc(Cl)c2)c[nH]1",
    "assigned-category": "y"
  },
  {
    "compound": "CN(Cc1ccccc1)C(=O)c1cc(-c2[nH]ncc2-c2cccc(Cl)c2)c[nH]1",
    "assigned-category": "n"
  },
  {
    "compound": "O=C(NC(CO)c1ccccc1F)c1cc(-c2[nH]ncc2-c2cccc(Cl)c2)c[nH]1 (centres undefined)",
    "assigned-category": "y"
  },
  {
    "compound": "C[C@H](NC(=O)c1cc(-c2n[nH]cc2-c2cccc(Cl)c2)c[nH]1)c1ccccc1",
    "assigned-category": "n"
  },
  {
    "compound": "O=C(NCCc1cccnc1)c1cc(-c2[nH]ncc2-c2cccc(Cl)c2)c[nH]1",
    "assigned-category": "n"
  },
  {
    "compound": "O=C(NC1c2ccccc2CC1O)c1cc(-c2[nH]ncc2-c2cccc(Cl)c2)c[nH]1 (centres undefined)",
    "assigned-category": "n"
  },
  {
    "compound": "O=C(NC(CO)c1ccc(F)cc1)c1cc(-c2n[nH]cc2-c2cccc(Cl)c2)c[nH]1 (centres undefined)",
    "assigned-category": "y"
  },
  {
    "compound": "NC(=O)[C@@H](NC(=O)c1cc(-c2[nH]ncc2-c2cccc(Cl)c2)c[nH]1)c1ccccc1",
    "assigned-category": "n"
  }
]
